The reported measurements were obtained from patent US20260242478A1.

- tested.on: T1, Anti-CD28 Fab (SEQ ID NOs: 696, 697)
- T1 construct: In the phage ELISA the Fab was biotinylated and captured on neutravidin coated plates
- assay.method.text: phage binding ELISA on plate-captured anti-CD28 Fab pre-incubated with CD28 antigen (competitor: CD28)
endpoint.name: Anti-CD28 Fab signal in the presence of CD28
# print the numeric value only

Example entries and their recorded answers appear below.
SCAAGAPYPWPECL [Phage-1518 (Peptide-92 library sequence, SEQ ID NO: 1814)]    0.07
MCTAGATYPWPACL [Phage-1531 (Peptide-92 library sequence, SEQ ID NO: 1827)]    0.07
SCAAGAMWPWPVCV [Phage-1522 (Peptide-92 library sequence, SEQ ID NO: 1818)]    0.07

# next binder below
Sample LCAAGFNYPWPLCL [Phage-1530 (Peptide-92 library sequence, SEQ ID NO: 1826)] — what was its Anti-CD28 Fab signal in the presence of CD28?
0.05
